- System: Total MAO
- assay.details: Total rat MAO activity (rat liver mitochondrial preparation, tyramine substrate)
- Format: biochemical
- conditions: at 250 μM
measurement.name: Total MAO Inhibitory activity (%)
Numbers only here, please. The scale is %.

-- ask Which Total MAO Inhibitory activity (%) value belongs to `O=c1cc(Nc2ccc(N3CCCCC3)cc2)c(-c2nc[nH]n2)nn1-c1ccc(Cl)cc1` ?
-- reply 21

-- ask Which Total MAO Inhibitory activity (%) value belongs to `O=c1cc(Nc2ccc3c(c2)OCO3)c(-c2nc[nH]n2)nn1-c1ccc(Cl)cc1` ?
-- reply 14

-- ask Which Total MAO Inhibitory activity (%) value belongs to `COc1cc(Nc2cc(=O)n(-c3ccc(Cl)cc3)nc2-c2nc[nH]n2)cc(OC)c1OC` ?
-- reply 17

-- ask Which Total MAO Inhibitory activity (%) value belongs to `CN(C)c1ccc(Nc2cc(=O)n(-c3ccc(Cl)cc3)nc2-c2nc[nH]n2)cc1` ?
-- reply 8
